- Assay Protocol: Inhibition of Helicobacter pylori FabZ
Property Measured: pIC50
Worth noting: pIC50 values are minus log10 of concentrations stated in mol/L.

Entry under review: "O=C(N/N=C/c1cc(Br)c(O)c(Br)c1O)c1cc2ccccc2cc1O" . Reported pIC50? 6.07

Entry under review: "O=C(N/N=C/c1cc(Br)c(O)c(Br)c1O)c1cc(C(F)(F)F)cc(C(F)(F)F)c1" . Reported pIC50? 5.67

Entry under review: "O=C(N/N=C/c1cc(Br)c(O)c(Br)c1O)c1ccc2cc(O)ccc2c1" . Reported pIC50? 5.06

Entry under review: "O=C(N/N=C/c1cc(Br)c(O)c(Br)c1O)c1cccnc1" . Reported pIC50? 4.40

Entry under review: "O=C(N/N=C/c1cc(Br)c(O)c(Br)c1O)c1ccc2cc(Br)ccc2c1" . Reported pIC50? 5.45

----------
- System: Helicobacter pylori
- Assay Protocol: Antimicrobial activity against Helicobacter pylori ATCC 43504 by standard agar dilution method
- Type: functional
Measured MIC, listed per entry for reference.

O=C(N/N=C/c1cc(Br)c(O)c(Br)c1O)c1ccc2ccccc2c1 : 100 µg/mL

Let us move to another entry and its MIC.
Entry under review: "O=C(N/N=C/c1cc(Br)c(O)c(Br)c1O)c1ccc(Br)cc1" . Reported MIC? 100 µg/mL

----------
- Tested on: Helicobacter pylori
- Assay Protocol: Antimicrobial activity against Helicobacter pylori ATCC 43504 by standard agar dilution method
- Assay type: functional
Property Measured: MIC (µg/mL)
Field format: number, assumed µg/mL, no unit text.

These solved cases illustrate the format of a correct answer.
O=C(N/N=C/c1cc(Br)c(O)c(Br)c1O)c1cc(C(F)(F)F)cc(C(F)(F)F)c1 : 50
O=C(N/N=C/c1cc(Br)c(O)c(Br)c1O)c1cc2ccccc2cc1O : 100
O=C(N/N=C/c1cc(Br)c(O)c(Br)c1O)c1ccc2cc(Br)ccc2c1 : 100
O=C(N/N=C/c1cc(Br)c(O)c(Br)c1O)c1ccc2c(c1)Cc1ccccc1-2 : 50
O=C(N/N=C/c1cc(Br)c(O)c(Br)c1O)c1ccc2cc(O)ccc2c1 : 100
O=C(N/N=C/c1cc(Br)c(O)c(Br)c1O)c1cccc(Br)c1 : 100

GET /values?readout=MIC&system=Helicobacter pylori&item= "CC(C)(C)c1ccc(C(=O)N/N=C/c2cc(Br)c(O)c(Br)c2O)cc1" 100

GET /values?readout=MIC&system=Helicobacter pylori&item= "O=C(N/N=C/c1cc(Br)c(O)c(Br)c1O)c1ccc2ccccc2c1O" 100

----------
- Test system: Helicobacter pylori
- Assay Protocol: Inhibition of Helicobacter pylori FabZ at 50 uM
Calls of active or inactive are those of the source. No cut-off for these calls is given here.
Property Measured: inhibition

These solved cases illustrate the format of a correct answer.
O=C(N/N=C/c1cc(Br)c(O)c(Br)c1O)c1cccnc1 : 71.4%
COCCN1C(=O)/C(=C\c2ccc(-c3ccc(Cl)c(C(=O)OC)c3)o2)S/C1=N/c1ccc(OC)cc1 : inactive
COCCN1C(=O)/C(=C\c2ccc(-c3ccc(Cl)c(C(=O)OC)c3)o2)S/C1=N/c1cccc(OC)c1 : 12.6%
O=C(N/N=C/c1cc(Br)c(O)c(Br)c1O)c1ccccc1 : 38.8%

Let us move to another entry and its inhibition.
Entry under review: "COCCN1C(=O)/C(=C\c2ccc(-c3ccc(Cl)c(C(=O)OC)c3)o2)S/C1=N/c1cccc(F)c1" . Reported inhibition? inactive

Hey, just so you know, these numbers are from ChEMBL document CHEMBL1153414.
